assay: chemical genetic growth profiling, strain panel (AID 1159580);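 also: tested at 20 µM; growth read once vehicle control cultures reached saturation at 30 °C; 1 = growth at the plate median or of vehicle wells; lower values mean less growth of the strain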; details: S. cerevisiae deletion strains, growth OD, locus YJL128C, strain PBS2, stronger effect = lower value
The campaign covered roughly 5,500 compounds. About 2,000 (36%) were called active. Inconclusive results (about 18%) are left out. The list shows a part of the results.
PROPERTY: normalized growth

                                 smiles_str           property  measured_result
0  O=C(O/N=C1/CCCc2[nH]c3ccccc3c21)C1CCCCC1  normalized growth            0.935
1   COc1ccc(N=C2SCC(c3ccc(C)cc3)=NN2CCO)cc1  normalized growth            0.955
2  Cc1ccc(Sc2ncccc2NS(=O)(=O)c2ccc(Cl)cc2)cc1  normalized growth             0.88
3  N#C/C(N=Cc1cc(Cl)cc(Cl)c1O)=C(\C#N)N=Cc1cc(Cl)cc(Cl)c1O  normalized growth            0.905
4  N#Cc1nccnc1N1CCN(C(=O)Nc2cc(Cl)cc(Cl)c2)CC1  normalized growth            0.954
5  O=C(Nc1ccc(SC(F)(F)F)cc1)Nc1ccc(Oc2cccc(C(F)(F)F)c2)nc1  normalized growth            0.946
6  CC1(C)C=Cc2cc(/C(N)=N\OC(=O)Nc3cccc(C(F)(F)F)c3)ccc2O1  normalized growth            0.967
7               ONC(=Nc1ccccc1Cl)c1ccccc1Cl  normalized growth             0.95

This collection of values is drawn from PubChem BioAssay AID1159580.
